Kd overview
- target: T1, EphA2 SAM domain K917D (human, UniProt P29317 897-976, K917D)
- T1 sequence (looked up): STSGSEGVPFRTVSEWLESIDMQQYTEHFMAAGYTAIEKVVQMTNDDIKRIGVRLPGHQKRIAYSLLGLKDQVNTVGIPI
- protocol.text: ITC
Report the figure in µM without appending any unit label.

[
  {
    "binder": "SHIP2 SAM domain D1224K (domain or fragment, human, UniProt O15357 1192-1258, looked up) RASGLGEAGMSAWLRAIGLERYEEGLVHNGWDKLEFLSDITEEDLEEAGVQDPAHKRLLLDTLQLSK",
    "Kd (µM)": 10
  }
]

Let us move to another entry and its Kd.
Suppose we examine the binder SHIP2 SAM domain (wild type) (domain or fragment, human, UniProt O15357 1192-1258, looked up) RASGLGEAGMSAWLRAIGLERYEEGLVHNGWDDLEFLSDITEEDLEEAGVQDPAHKRLLLDTLQLSK ; what Kd value has been reported?
9.1
